Target: T1, Histidine-tagged ROR1 protein (extracellular region) (UniProt Q01973 30-406)
T1 construct: extracellular domain; also called extracellular portion of ROR1 bearing a Histidine tag; not shown: Histidine tag
T1 sequence (Q01973 30-406): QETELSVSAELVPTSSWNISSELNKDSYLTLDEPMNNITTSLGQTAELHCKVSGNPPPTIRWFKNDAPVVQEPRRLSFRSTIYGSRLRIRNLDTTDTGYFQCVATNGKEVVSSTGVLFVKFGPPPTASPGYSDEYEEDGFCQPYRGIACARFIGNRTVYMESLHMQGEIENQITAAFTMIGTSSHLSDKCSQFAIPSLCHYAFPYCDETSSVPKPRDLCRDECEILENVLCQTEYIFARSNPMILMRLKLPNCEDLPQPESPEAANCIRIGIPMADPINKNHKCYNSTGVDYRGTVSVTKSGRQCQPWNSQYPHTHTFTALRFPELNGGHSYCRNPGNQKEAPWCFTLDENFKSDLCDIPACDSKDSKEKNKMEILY
Experiment: SPR, Biacore X100; antibody captured by anti-human IgG1 on CM5 chip, His-tagged ROR1 extracellular portion injected at 1.5-100 nM
# kon annotations

BINDER	QUANTITY UNIT	kon
Clone B chimeric ROR1 antibody (antibody, V domains shown, also called B5) VH: DVQLEESGGGLVRPGRSLKLSCADSGVNFSNRGMAWVRQAPTKGLEWVATISYDGRIIYYRDSVKGRFSISRENAKSTLYLQMDSLRSEDTATYYCARHPIAADWYFDFWGPGTMVTVSS VL: DIRMTQSPASLSASLGETVTIECLTSEDIYSDLAWFQQKPGKSPQLLIYDANSLQNGVPSRFGGCGSGTQYSLQISSLQSEDVATYFCQQYKNYPPTFGGGTKLVLK	M⁻¹ s⁻¹	464000
Clone I chimeric ROR1 antibody (antibody, V domains shown) VH: EVQLVESGGGSVQPGRSLKLSCAASGFTFSDYNMAWVRQAPKKGPEWVATITYDVHNAYYRDSVKGRFTISRDDAKSTLYLQMDSLRSEDTATYFCARPGAYWGQGTLVTVSS VL: DIQLTQSPSSMSASLGDRVSLTCQSSQGIGKYLSWYQHKPGKPPKAMIYYATKLADGVPSRFSGSRSGSDFSLTISSLESEDIAIYYCLQFDDYPWTFGGGTKLELK	M⁻¹ s⁻¹	209000
Clone Pi chimeric ROR1 antibody (antibody, V domains shown) VH: EVQLVESGGGLVQPGRSLTLSCSASGFTFRDYNMAWVRQAPRKGLEWVATISFDDYNTYYRDSVKGRFTISRDDAKSTLYLQMDSLRSEDTATYYCARPGTYWGQGTLVTVSS VL: DIQLTQSPSSLSASLGDRVSLTCQSSQGIGKYLSWFQHKPGKPPKPVINYATNLADGVPSRFSGRRSGSDFSLTISSLESEDTAIYYCLQFDDFRWTVGGGTKLELK	M⁻¹ s⁻¹	176000
